Tested on: MCF-7 (breast adenocarcinoma)
Assay: Inhibition of cell proliferation (MTT), MCF-7
Format: cell-based, human
Conditions: Homo sapiens, MCF7, 48 h, Table 2; 48 h of treatment (footnote); average ±SD of three experiments
pIC50: −log10 of the molar value.
observed.property: pIC50

compound=COc1ccc(/C=C\c2cc(OC)c(OC)c(OC)c2)cc1NC(=O)[C@@H](NC(=O)OCC1c2ccccc2-c2ccccc21)C(C)C target_system="MCF-7 (breast adenocarcinoma)" observed_property=pIC50 obs_value=7.00
compound="COc1ccc(/C=C\\c2cc(OC)c(OC)c(OC)c2)cc1NC(=O)[C@@H](N)C(C)O (stereo partly drawn)" target_system="MCF-7 (breast adenocarcinoma)" observed_property=pIC50 obs_value=7.92
compound=COc1ccc(/C=C\c2cc(OC)c(OC)c(OC)c2)cc1NC(=O)[C@H](N)CC(C)C target_system="MCF-7 (breast adenocarcinoma)" observed_property=pIC50 obs_value=5.70

###

System: MCF-7 (breast adenocarcinoma)
Experiment: Inhibition of cell proliferation (MTT), MCF-7
Type: cell-based, human
Details: Table 2; 48 h of treatment (footnote); average ±SD of three experiments
observed.property: IC50 (nM)

structure_smiles=COc1ccc(/C=C\c2cc(OC)c(OC)c(OC)c2)cc1NC(=O)[C@@H](N)CCSC obs_value=3.4
structure_smiles=COc1ccc(/C=C\c2cc(OC)c(OC)c(OC)c2)cc1NC(=O)[C@H](C)N obs_value=4.8
structure_smiles=COc1ccc(/C=C\c2cc(OC)c(OC)c(OC)c2)cc1NC(=O)[C@@H](N)Cc1ccc(O)cc1 obs_value=4.9

###

Test system: HEK-293 (human embryonic kidney cells)
Assay: Inhibition of cell proliferation (MTT), nontumor HEK-293
Assay type: cell-based
Conditions: Table 2; 48 h of treatment (footnote); average ±SD of three experiments
pIC50: −log10 of the molar value.
observed.property: pIC50

structure_smiles=COc1ccc(/C=C\c2cc(OC)c(OC)c(OC)c2)cc1NC(=O)[C@@H](N)Cc1ccccc1 target_system="HEK-293 (human embryonic kidney cells)" obs_value=8.46
structure_smiles=COc1ccc(/C=C\c2cc(OC)c(OC)c(OC)c2)cc1NC(=O)[C@@H](N)CCSC target_system="HEK-293 (human embryonic kidney cells)" obs_value=8.43
structure_smiles=COc1ccc(/C=C\c2cc(OC)c(OC)c(OC)c2)cc1NC(=O)[C@@H](N)Cc1ccc(O)cc1 target_system="HEK-293 (human embryonic kidney cells)" obs_value=8.57
structure_smiles=COc1ccc(/C=C\c2cc(OC)c(OC)c(OC)c2)cc1NC(=O)[C@H](C)N target_system="HEK-293 (human embryonic kidney cells)" obs_value=8.40

###

Entries annotated with measured IC50
Tested on: MCF-7 (breast adenocarcinoma)
Experiment: Inhibition of cell proliferation (MTT), MCF-7
Format: cell-based, human
Details: Homo sapiens, MCF7, 48 h, Table 2; 48 h of treatment (footnote); average ±SD of three experiments
observed.property: IC50 (nM)

compound="COc1ccc(/C=C\\c2cc(OC)c(OC)c(OC)c2)cc1NC(=O)[C@@H](Cc1ccccc1)NC(=O)OCC1c2ccccc2-c2ccccc21 [Compound 9.3]" value_relation_sign== obs_value=4500
compound="COc1ccc(/C=C\\c2cc(OC)c(OC)c(OC)c2)cc1NC(=O)[C@H](CC(C)C)NC(=O)OCC1c2ccccc2-c2ccccc21 [Compound 7.4]" value_relation_sign== obs_value=9
compound="COc1ccc(/C=C\\c2cc(OC)c(OC)c(OC)c2)cc1NC(=O)[C@H](N)C(C)C [Compound 10.1]" value_relation_sign== obs_value=4700
compound="COc1ccc(/C=C\\c2cc(OC)c(OC)c(OC)c2)cc1NC(=O)[C@H](C)N [Compound 8.2]" value_relation_sign=< obs_value=5
compound="COc1ccc(/C=C\\c2cc(OC)c(OC)c(OC)c2)cc1N [AmCA-4, 3′-aminocombretastatin A-4]" value_relation_sign== obs_value=8
compound="COc1ccc(/C=C\\c2cc(OC)c(OC)c(OC)c2)cc1NC(=O)[C@H]1CCCN1 [Compound 10.4]" value_relation_sign== obs_value=600
compound="COc1ccc(/C=C\\c2cc(OC)c(OC)c(OC)c2)cc1NC(=O)[C@H](CCSC)NC(=O)OCC1c2ccccc2-c2ccccc21 [Compound 7.9]" value_relation_sign== obs_value=5.1
compound="COc1ccc(/C=C\\c2cc(OC)c(OC)c(OC)c2)cc1NC(=O)[C@@H](N)C(C)C [Compound 8.3]" value_relation_sign== obs_value=13
compound="COc1ccc(/C=C\\c2cc(OC)c(OC)c(OC)c2)cc1NC(=O)[C@@H](N)CCSC [Compound 8.9]" value_relation_sign=< obs_value=5
compound="COc1ccc(/C=C\\c2cc(OC)c(OC)c(OC)c2)cc1NC(=O)[C@H](N)Cc1ccccc1 [Compound 10.3]" value_relation_sign== obs_value=2000
compound="COc1ccc(/C=C\\c2cc(OC)c(OC)c(OC)c2)cc1NC(=O)[C@@H](CC(C)C)NC(=O)OCC1c2ccccc2-c2ccccc21 [Compound 9.2]" value_relation_sign== obs_value=3100
compound="COc1ccc(/C=C\\c2cc(OC)c(OC)c(OC)c2)cc1NC(=O)[C@H](Cc1ccc(O)cc1)NC(=O)OCC1c2ccccc2-c2ccccc21 [Compound 7.8]" value_relation_sign== obs_value=12
compound="COc1ccc(/C=C\\c2cc(OC)c(OC)c(OC)c2)cc1NC(=O)CN [Compound 8.1]" value_relation_sign== obs_value=9
compound="COc1ccc(/C=C\\c2cc(OC)c(OC)c(OC)c2)cc1NC(=O)[C@@H](N)Cc1ccc(O)cc1 [Compound 8.8]" value_relation_sign=< obs_value=5
compound="COc1ccc(/C=C\\c2cc(OC)c(OC)c(OC)c2)cc1NC(=O)[C@@H]1CCCN1 [Compound 8.6]" value_relation_sign== obs_value=3100
